Where do these numbers come from? They come from patent US6683079B2.

# Tested on: HIV-1 strain 103 N
# PROTOCOL DETAILS: Retrovirucidal effect on HIV-1 strain 103 N (Table 3)
# Type: cell-based
# PROTOCOL CONDITIONS: HIV-1 strain 103N (RT Lys-103 to Asn mutant); pIC50=-log IC50, IC50 in M
METRIC: HIV1 pIC50 strain 103N

COMPOUND	VALUE PREFIX	RECORDED MEASUREMENT
CCc1c(C)[nH]c(=O)c(N(C)C)c1Cc1cccc(Br)c1 [Compound 60]	=	7.001
CCc1c(C)[nH]c(=O)c(N(C)CC(C)C)c1Cc1cc(C)cc(C)c1 [Compound 62]	=	5.305
CCc1c(C)[nH]c(=O)c(N)c1Cc1nccn1C [Compound 84]	<	4
CCc1c(C)[nH]c(=O)c(N(C)C)c1Sc1cc(C)cc(C)c1 [Compound 149]	=	7.883
CCc1c(C)[nH]c(=O)c(N)c1CNCc1ccccc1 [Compound 80]	<	4
CCc1c(C)[nH]c(=O)c(N)c1Cc1ccc(Cl)cc1 [Compound 54]	<	5
CCc1c(C)[nH]c(=O)c(NC)c1Cc1cc(C)cc(C)c1 [Compound 46]	=	7.034
CCc1c(C)[nH]c(=O)c(N(C)CCOC)c1C(=O)c1cccc(C)c1 [Compound 175]	=	7.717
CCc1[nH]c(=O)c(N(C)C)c(Cc2cc(C)cc(C)c2)c1C [Compound 28]	=	6.943
CCc1c(C)[nH]c(=O)c(N)c1Cc1cccc(Cl)c1 [Compound 39]	=	4.751
CCc1c(C)[nH]c(=O)c(N)c1Cc1ccc(C)cc1C [Compound 31]	<	4
CCc1c(C)[nH]c(=O)c(N(C)CC)c1Cc1cc(C)cc(C)c1 [Compound 56]	=	7.11
CCc1c(C)[nH]c(=O)c(N)c1Cc1ccc2ccccc2c1 [Compound 7]	<	4
CCc1[nH]c(=O)c(N)c(Cc2cc(C)cc(C)c2)c1C [Compound 27]	=	5.098
CCc1cccc(Cc2c(CC)c(C)[nH]c(=O)c2N)c1 [Compound 98]	=	4.978
CCc1c(C)[nH]c(=O)c(N)c1Cc1ccc(C(F)(F)F)cc1 [Compound 52]	<	5
CCc1c(C)[nH]c(=O)c(NCc2ccccc2)c1Cc1cc(C)cc(C)c1 [Compound 29]	=	5.496
CCc1c(C)[nH]c(=O)c(N(C)C)c1C(O)c1cc(C)cc(C)c1 (stereo not shown) [Compound 48]	=	6.711
CCc1c(C)[nH]c(=O)c(N)c1C(=O)c1ccc(OC)c(C)c1 [Compound 168]	=	4.806
